- Test system: NCI-H322M
- experimentDescription: Cytotoxicity against human NCI-H322M cells
- Assay type: functional
Listed below: LC50 values for each entry.
Give just the number in µM; leave the unit off.

Take a look at these entries with their results.
compound	quantityMeasured	observedMeasurement
CC1=C([Se]CC(OC(=O)[C@@H](CO)NC(=O)OC(C)(C)C)C(=O)NC(C)(C)C)C(=O)c2ccccc2C1=O (some centres undefined)	LC50	32.4
CC1=C([Se]CC(OC(=O)[C@@H](CO)NC(=O)OC(C)(C)C)C(=O)NCCCCCC(=O)OCc2ccccc2)C(=O)c2ccccc2C1=O (some centres undefined)	LC50	27.5

// map CC1=C(SCCC(=O)OC(C[Se]C2=C(C)C(=O)c3ccccc3C2=O)C(=O)NCCCCCC(=O)OCc2ccccc2)C(=O)c2ccccc2C1=O (centres undefined) to recorded LC50 (system: NCI-H322M)
66.1

---

- Tested on: HT-29
- experimentDescription: Cytotoxicity against human HT-29 cells
- Type: functional
Listed below: GI50 values for each entry.
Give just the number in nM; leave the unit off.

compound	observedMeasurement
CC1=C(SCCC(=O)OC(C[Se]C2=C(C)C(=O)c3ccccc3C2=O)C(=O)NCCCCCC(=O)OCc2ccccc2)C(=O)c2ccccc2C1=O (centres undefined)	3550

// map CC1=C([Se]CC(OC(=O)[C@@H](CSSC(C)(C)C)NC(=O)C(C)(C)C)C(=O)NCCCCCC(=O)OCc2ccccc2)C(=O)c2ccccc2C1=O (some centres undefined) to recorded GI50 (system: HT-29)
2690

// map CC1=C([Se]CC(OC(=O)[C@@H](CO)NC(=O)OC(C)(C)C)C(=O)NC(C)(C)C)C(=O)c2ccccc2C1=O (some centres undefined) to recorded GI50 (system: HT-29)
2290

// map CC1=C([Se]CC(OC(=O)[C@@H](CO)NC(=O)OC(C)(C)C)C(=O)NCCCCCC(=O)OCc2ccccc2)C(=O)c2ccccc2C1=O (some centres undefined) to recorded GI50 (system: HT-29)
2140

---

- Test system: PC-3
- experimentDescription: Cytotoxicity against human PC3 cells
- Format: functional
Listed below: GI50 values for each entry.
Give just the number in nM; leave the unit off.

compound	tgt	quantityMeasured	observedMeasurement
CC1=C([Se]CC(OC(=O)[C@@H](CO)NC(=O)OC(C)(C)C)C(=O)NC(C)(C)C)C(=O)c2ccccc2C1=O (some centres undefined)	PC-3	GI50	1350
CC1=C([Se]CC(OC(=O)[C@@H](CSSC(C)(C)C)NC(=O)C(C)(C)C)C(=O)NCCCCCC(=O)OCc2ccccc2)C(=O)c2ccccc2C1=O (some centres undefined)	PC-3	GI50	1510
CC1=C(SCCC(=O)OC(C[Se]C2=C(C)C(=O)c3ccccc3C2=O)C(=O)NCCCCCC(=O)OCc2ccccc2)C(=O)c2ccccc2C1=O (centres undefined)	PC-3	GI50	2570

Next up:
// map CC1=C([Se]CC(OC(=O)[C@@H](CO)NC(=O)OC(C)(C)C)C(=O)NCCCCCC(=O)OCc2ccccc2)C(=O)c2ccccc2C1=O (some centres undefined) to recorded GI50 (system: PC-3)
1230

---

- System: MCF7
- experimentDescription: Cytotoxicity against human MCF7 cells
- Assay type: functional
- measurementContext: read-out: pTGI (converted)
quantityMeasured: TGI (µM)
Give just the number in µM; leave the unit off.

molecule	tgt	observedMeasurement
CC1=C([Se]CC(OC(=O)[C@@H](CSSC(C)(C)C)NC(=O)C(C)(C)C)C(=O)NCCCCCC(=O)OCc2ccccc2)C(=O)c2ccccc2C1=O (some centres undefined)	MCF7	9.77

Any idea what TGI was measured for CC1=C([Se]CC(OC(=O)[C@@H](CO)NC(=O)OC(C)(C)C)C(=O)NCCCCCC(=O)OCc2ccccc2)C(=O)c2ccccc2C1=O (some centres undefined) ?
3.39

Any idea what TGI was measured for CC1=C([Se]CC(OC(=O)[C@@H](CO)NC(=O)OC(C)(C)C)C(=O)NC(C)(C)C)C(=O)c2ccccc2C1=O (some centres undefined) ?
3.98

Any idea what TGI was measured for CC1=C(SCCC(=O)OC(C[Se]C2=C(C)C(=O)c3ccccc3C2=O)C(=O)NCCCCCC(=O)OCc2ccccc2)C(=O)c2ccccc2C1=O (centres undefined) ?
29.5

The values you see were collected from ChEMBL document CHEMBL2177069.
